Data credit: PubChem BioAssay AID1918930

# Tested on: 233499-124-R-J3-PDC complex spheroid viability, % test/control
# EXPERIMENT_NOTES: Anticancer human tumor 233499-124-R-J3-PDC patient-derived colon adenocarcinoma cell line growth inhibition
# STUDY_CONDITIONS: second compound 10 µM; first compound 0.01 µM; hits give low values
Some compounds, each annotated with its measured viability, T/C.
Express it in %; write the number only.

# annotated cases, reported viability, T/C shown
{"columns": ["COMPOUND", "viability, T/C, %"],
 "data": [
  ["CC(C)CC(NC(=O)CNC(=O)c1cc(Cl)ccc1Cl)B1OC(=O)CC(CC(=O)O)(C(=O)O)O1 (stereo not given) + NC1CC1c1ccc(-c2cccc(O)c2)cc1", 0.89],
  ["CC(C)CC(NC(=O)C(Cc1ccccc1)NC(=O)c1cnccn1)B(O)O (stereo not given) + NC1CC1c1ccc(-c2cccc(O)c2)cc1", 0.22],
  ["O=C(C=Cn1cnc(-c2cc(C(F)(F)F)cc(C(F)(F)F)c2)n1)NNc1cnccn1 + NC1CCC(NC2CC2c2ccccc2)CC1", 97.3],
  ["CC1COCCN1c1cc(-c2ccnn2C)c2ccnc(-c3ccn[nH]3)c2n1 (stereo not given) + NC1CCC(NC2CC2c2ccccc2)CC1", 63.5],
  ["CC[C@@]1(O)C(=O)OCc2c1cc1n(c2=O)Cc2cc3c(CN(C)C)c(O)ccc3nc2-1 + NC1CC1c1ccc(-c2cccc(O)c2)cc1", 53.6],
  ["Nc1ncn(C2CC(O)C(CO)O2)c(=O)n1 (stereo not given) + NC1CC1c1ccc(-c2cccc(O)c2)cc1", 83.9],
  ["O=C(C=Cn1cnc(-c2cc(C(F)(F)F)cc(C(F)(F)F)c2)n1)NNc1cnccn1 + NC1CC1c1ccc(-c2cccc(O)c2)cc1", 83.1],
  ["CC(C)CC(NC(=O)CNC(=O)c1cc(Cl)ccc1Cl)B1OC(=O)CC(CC(=O)O)(C(=O)O)O1 (stereo not given) + NC1CCC(NC2CC2c2ccccc2)CC1", 6.15],
  ["Cn1ncnc1C1c2n[nH]c(=O)c3cc(F)cc(c23)NC1c1ccc(F)cc1 (stereo not given) + NC1CCC(NC2CC2c2ccccc2)CC1", 80.9],
  ["CC(C)CC(NC(=O)C(Cc1ccccc1)NC(=O)c1cnccn1)B(O)O (stereo not given) + NC1CCC(NC2CC2c2ccccc2)CC1", 0.13]
]}

The reported viability, T/C of the compound COc1cc(Nc2ncc3c(n2)-c2ccc(Cl)cc2C(c2c(F)cccc2OC)=NC3)ccc1C(=O)O + NC1CC1c1ccc(-c2cccc(O)c2)cc1 was 48.3

The reported viability, T/C of the compound CC[C@@]1(O)C(=O)OCc2c1cc1n(c2=O)Cc2cc3c(CN(C)C)c(O)ccc3nc2-1 + NC1CCC(NC2CC2c2ccccc2)CC1 was 48

The reported viability, T/C of the compound Nc1ncn(C2CC(O)C(CO)O2)c(=O)n1 (stereo not given) + NC1CCC(NC2CC2c2ccccc2)CC1 was 71.2

The reported viability, T/C of the compound CC1COCCN1c1cc(-c2ccnn2C)c2ccnc(-c3ccn[nH]3)c2n1 (stereo not given) + NC1CC1c1ccc(-c2cccc(O)c2)cc1 was 42.1

The reported viability, T/C of the compound Cn1ncnc1C1c2n[nH]c(=O)c3cc(F)cc(c23)NC1c1ccc(F)cc1 (stereo not given) + NC1CC1c1ccc(-c2cccc(O)c2)cc1 was 70.3

* * *

# Tested on: 233499-124-R-J3-PDC complex spheroid viability, % test/control
# EXPERIMENT_NOTES: Anticancer human tumor 233499-124-R-J3-PDC cell line growth inhibition;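 note: spheroids exposed to agents for one week before readout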
# STUDY_CONDITIONS: second compound 0.316 µM; first compound 0.316 µM; hits give low values
PROPERTY: viability, T/C (%)
Express it in %; write the number only.

The reported viability, T/C of the molecule COc1ccc([C@@H](O)c2cc(-c3ncnc4cc(N5CCOCC5)ccc34)c(F)cc2Cl)nn1 + NC1CC1c1ccc(-c2cccc(O)c2)cc1 was 95.5

The reported viability, T/C of the molecule CC(C)c1c(-c2ccccc2)nc2c(C#N)c[nH]n2c1=O + NC1CC1c1ccc(-c2cccc(O)c2)cc1 was 109

The reported viability, T/C of the molecule CC1(C)CCC(CN2CCN(c3ccc(C(=O)NS(=O)(=O)c4ccc(NCC5CCOCC5)c([N+](=O)[O-])c4)c(Oc4cnc5[nH]ccc5c4)c3)CC2)=C(c2ccc(Cl)cc2)C1 + NC1CCC(NC2CC2c2ccccc2)CC1 was 114

The reported viability, T/C of the molecule O=C(C=Cn1cnc(-c2cc(C(F)(F)F)cc(C(F)(F)F)c2)n1)NNc1cnccn1 + NC1CC1c1ccc(-c2cccc(O)c2)cc1 was 73.5

The reported viability, T/C of the molecule O=C(C=Cn1cnc(-c2cc(C(F)(F)F)cc(C(F)(F)F)c2)n1)NNc1cnccn1 + NC1CCC(NC2CC2c2ccccc2)CC1 was 28.2

The reported viability, T/C of the molecule CC1COCCN1c1cc(-c2ccnn2C)c2ccnc(-c3ccn[nH]3)c2n1 (stereo unspecified) + NC1CCC(NC2CC2c2ccccc2)CC1 was 30.1

The reported viability, T/C of the molecule Nc1ncn(C2CC(O)C(CO)O2)c(=O)n1 (stereo unspecified) + NC1CCC(NC2CC2c2ccccc2)CC1 was 98.8

The reported viability, T/C of the molecule O=C(c1cc(Cc2n[nH]c(=O)c3ccccc23)ccc1F)N1CCN(C(=O)C2CC2)CC1 + NC1CC1c1ccc(-c2cccc(O)c2)cc1 was 106

The reported viability, T/C of the molecule O=C(c1cc(Cc2n[nH]c(=O)c3ccccc23)ccc1F)N1CCN(C(=O)C2CC2)CC1 + NC1CCC(NC2CC2c2ccccc2)CC1 was 90.5

The reported viability, T/C of the molecule CC(C)c1c(-c2ccccc2)nc2c(C#N)c[nH]n2c1=O + NC1CCC(NC2CC2c2ccccc2)CC1 was 97.3

The reported viability, T/C of the molecule CC1COCCN1c1cc(C2(S(C)(=N)=O)CC2)nc(-c2ccnc3[nH]ccc23)n1 (stereo unspecified) + NC1CCC(NC2CC2c2ccccc2)CC1 was 95.8

* * *

# Test system: 233499-124-R-J3-PDC complex spheroid viability, % test/control
# EXPERIMENT_NOTES: Anticancer human tumor 233499-124-R-J3-PDC cell line growth inhibition;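 note: spheroids exposed to agents for one week before readout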
# STUDY_CONDITIONS: second compound 1 µM; first compound 1 µM; hits give low values
PROPERTY: viability, T/C

# annotated cases, reported viability, T/C shown
{"columns": ["COMPOUND", "VAL"],
 "data": [
  ["CC1COCCN1c1cc(C2(S(C)(=N)=O)CC2)nc(-c2ccnc3[nH]ccc23)n1 (centres undefined) + NC1CCC(NC2CC2c2ccccc2)CC1", "66.3%"],
  ["COc1cc(Nc2ncc3c(n2)-c2ccc(Cl)cc2C(c2c(F)cccc2OC)=NC3)ccc1C(=O)O + NC1CC1c1ccc(-c2cccc(O)c2)cc1", "82.9%"],
  ["CC1COCCN1c1cc(-c2ccnn2C)c2ccnc(-c3ccn[nH]3)c2n1 (centres undefined) + NC1CCC(NC2CC2c2ccccc2)CC1", "28.5%"]
]}

Now take the following compound into account.
The reported viability, T/C of the compound Nc1ncn(C2CC(O)C(CO)O2)c(=O)n1 (centres undefined) + NC1CC1c1ccc(-c2cccc(O)c2)cc1 was 88.4%

* * *

# Test system: 233499-124-R-J3-PDC complex spheroid viability, % test/control
# EXPERIMENT_NOTES: Anticancer human tumor 233499-124-R-J3-PDC cell line growth inhibition;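 note: spheroids exposed to agents for one week before readout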
# STUDY_CONDITIONS: second compound 0.1 µM; first compound 0.1 µM; hits give low values
Some molecules, each annotated with its measured viability, T/C.

The reported viability, T/C of the molecule Cn1ncnc1C1c2n[nH]c(=O)c3cc(F)cc(c23)NC1c1ccc(F)cc1 (stereo unspecified) + NC1CC1c1ccc(-c2cccc(O)c2)cc1 was 84.4%

The reported viability, T/C of the molecule CC1COCCN1c1cc(-c2ccnn2C)c2ccnc(-c3ccn[nH]3)c2n1 (stereo unspecified) + NC1CCC(NC2CC2c2ccccc2)CC1 was 45.4%

The reported viability, T/C of the molecule COc1ccc([C@@H](O)c2cc(-c3ncnc4cc(N5CCOCC5)ccc34)c(F)cc2Cl)nn1 + NC1CC1c1ccc(-c2cccc(O)c2)cc1 was 93.4%

The reported viability, T/C of the molecule CC[C@@]1(O)C(=O)OCc2c1cc1n(c2=O)Cc2cc3c(CN(C)C)c(O)ccc3nc2-1 + NC1CCC(NC2CC2c2ccccc2)CC1 was 87.9%

The reported viability, T/C of the molecule CC[C@@]1(O)C(=O)OCc2c1cc1n(c2=O)Cc2cc3c(CN(C)C)c(O)ccc3nc2-1 + NC1CC1c1ccc(-c2cccc(O)c2)cc1 was 115%

The reported viability, T/C of the molecule CC1(C)CCC(CN2CCN(c3ccc(C(=O)NS(=O)(=O)c4ccc(NCC5CCOCC5)c([N+](=O)[O-])c4)c(Oc4cnc5[nH]ccc5c4)c3)CC2)=C(c2ccc(Cl)cc2)C1 + NC1CCC(NC2CC2c2ccccc2)CC1 was 127%
